assay protocol: UV thermal melting temperatures of TNA 12-mer duplexes
Assay type: physicochemical
experimental conditions: TNA 12-mer duplexes, 2.0 μM each strand, 1×PBS, pH 7.4
d = 2'-deoxy (DNA); f = 2'-fluoro
Entries and their Tm (° C.) values follow.
Write it as a number; the unit °C goes unstated.

Known results for substances:
- AD-649425.1 (sense TACAGUCTATGT; antisense ACATAGACTGTA; sense: sugars from the 5' end d5 f1 d6, backbone not given here; antisense: sugars from the 5' end d6 f1 d5, backbone not given here): 40.17
- AD-649409.1 (sense UACAGUCUAUGU; antisense ACAUAGACUGUA; chemistry not fully specified): 47.67
- AD-649420.1 (sense TACAGTCTATGT; antisense ACATAGACTGTA; chemistry not fully specified): 39.92
- AD-649424.1 (sense TACAGTCTATGT; antisense ACATAGACTGTA; sense: DNA, backbone not given here; antisense: sugars from the 5' end d5 f1 d6, backbone not given here): 42.945
- AD-64367.4 (sense TACAGTCTATGT; antisense ACATAGACTGTA; DNA, backbone not given here): 42.67

Consider the substance shown here: AD-649412.1 (sense UACAGUCUAUGU; antisense ACAUAGACUGUA; sense: RNA, backbone not given here; antisense: chemistry not given here; further chemistry not fully specified) What is its recorded Tm (° C.)?
53.17

Proceed to AD-649417.1 (sense TACAGTCTATGT; antisense ACATAGACTGTA; chemistry not fully specified)
43.07

Next up: AD-649411.1 (sense UACAGUCUAUGU; antisense ACAUAGACUGUA; chemistry not fully specified)
41.57

And then AD-64981.2 (sense TACAGUCTATGT; antisense ACATAGACTGTA; siRNA; sense: sugars from the 5' end d5 f1 d6, backbone not given here; antisense: DNA, backbone not given here) , what is it?
40.055

Can you check AD-64366.4 (sense UACAGUCUAUGU; antisense ACAUAGACUGUA; RNA, backbone not given here) next?
52.62

Repeat with AD-72585.2 (sense UACAGTCUAUGU; antisense ACAUAGACUGUA; siRNA; one TNA thymine in sense strand, plain letters not given here, further chemistry not given here)
47.745

Can you check AD-649419.1 (sense TACAGTCTATGT; antisense ACATAGACTGTA; chemistry not fully specified) next?
44.22

----------
assay protocol: UV thermal melting temperatures of mUNA 12-mer duplexes
Assay type: physicochemical
experimental conditions: 8×PBS, relative to unmodified duplex
[UNA] = unlocked nucleic acid; r = 2'-OH (RNA)
assay readout: ΔTm (° C.) (°C)
Field: numeric (°C). Do not append units.

Entry AD-511247.1 (sense TACAGTCTATGT; antisense ACAUAGACUGUA; sense: DNA, backbone not given here; antisense: RNA, backbone not given here) : reported ΔTm (° C.) = ?
0.0

Record: AD-511256.1 (sense TACAGUCTATGT; antisense ACAUAGACUGUA; sense: chemistry not given here; antisense: RNA, backbone not given here; sense strand has one mUNA-type uridine (Uun))
−20.6

// query: AD-511237.1 (sense UACAGUCUAUGU; antisense ACATAGACTGTA; sense: RNA, backbone not given here; antisense: DNA, backbone not given here)
0.0

How about AD-64366.2 (sense UACAGUCUAUGU; antisense ACAUAGACUGUA; RNA, backbone not given here) ?
0.0

Would you kindly repeat that for AD-64367.2 (sense TACAGTCTATGT; antisense ACATAGACTGTA; DNA, backbone not given here) ?
0.0

What do you have for AD-511227.1 (sense UACAGUCUAUGU; antisense ACAUAGACUGUA; sense: sugars from the 5' end r5 [UNA]1 r6, backbone not given here; antisense: RNA, backbone not given here) ?
−17.5

Consider next the substance AD-511246.1 (sense UACAGUCUAUGU; antisense ACATAGACTGTA; sense: chemistry not given here; antisense: DNA, backbone not given here; sense strand has one mUNA-type uridine (Uun)) in the same way.
−20.5

Entry AD-511236.1 (sense TACAGUCTATGT; antisense ACATAGACTGTA; sense: chemistry not given here; antisense: DNA, backbone not given here; sense strand has one mUNA-type uridine (Uun)) please
−25.5

----------
assay protocol: UV thermal melting temperatures of TNA 12-mer duplexes
Format: physicochemical
experimental conditions: TNA 12-mer duplexes, 2.0 μM each strand, 1×PBS, pH 7.4
d = 2'-deoxy (DNA); r = 2'-OH (RNA); f = 2'-fluoro
assay readout: Tm (° C.) (°C)
The reply should contain only the number, in °C.

• AD-649416.1 (sense UACAGUCUAUGU; antisense ACAUAGACUGUA; sense: RNA, backbone not given here; antisense: sugars from the 5' end r5 f1 r6, backbone not given here) = 55.32

I would be grateful if you could share the reported Tm (° C.) for AD-72587.2 (sense UACAGUCUAUGU; antisense ACAUAGACUGUA; siRNA; one TNA cytidine in sense strand, plain letters not given here, further chemistry not given here) .
47.12

Repeat for the following substance: AD-649408.1 (sense UACAGUCUAUGU; antisense ACAUAGACUGUA; chemistry not fully specified)
48.07

Here is the next substance: AD-649421.1 (sense TACAGTCTATGT; antisense ACATAGACTGTA; chemistry not fully specified)
40.055

Do the same for AD-64367.3 (sense TACAGTCTATGT; antisense ACATAGACTGTA; DNA, backbone not given here) please
42.42

How about AD-649423.1 (sense TACAGTCTATGT; antisense ACATAGACTGTA; sense: sugars from the 5' end d6 f1 d5, backbone not given here; antisense: DNA, backbone not given here) ?
42.345

What do you get for AD-72586.2 (sense TACAGTCTATGT; antisense ACATAGACTGTA; siRNA; chemistry not fully specified) ?
40.32

----------
assay protocol: UV thermal melting temperatures of mUNA 12-mer duplexes
Type: physicochemical
experimental conditions: mUNA 12-mer duplexes, 2.0 μM each strand, 8×PBS, pH 7.4
# Tm (° C.)b annotations
Write down the numeric answer in °C and omit the unit.

* AD-64367.2 (sense TACAGTCTATGT; antisense ACATAGACTGTA; DNA, backbone not given here) | 49.1
* AD-64366.2 (sense UACAGUCUAUGU; antisense ACAUAGACUGUA; RNA, backbone not given here) | 61.1

Quick one: Tm (° C.)b for AD-511256.1 (sense TACAGUCTATGT; antisense ACAUAGACUGUA; sense: chemistry not given here; antisense: RNA, backbone not given here; sense strand has one mUNA-type uridine (Uun)) ?
28.6

Here is the next substance: AD-511247.1 (sense TACAGTCTATGT; antisense ACAUAGACUGUA; sense: DNA, backbone not given here; antisense: RNA, backbone not given here)
49.1

----------
assay protocol: UV thermal melting temperatures of TNA 12-mer duplexes
Assay type: physicochemical
experimental conditions: 1×PBS, relative to unmodified duplex
d = 2'-deoxy (DNA); f = 2'-fluoro
Consider the cut-off -0.4 °C. If the recorded ΔTm (° C.) is strictly smaller, the label is YES; if not, the label is NO.

# count of solved cases: 3
* AD-649408.1 (sense UACAGUCUAUGU; antisense ACAUAGACUGUA; chemistry not fully specified) | YES
* AD-649418.1 (sense TACAGTCTATGT; antisense ACATAGACTGTA; sense: chemistry not given here; antisense: DNA, backbone not given here; further chemistry not fully specified) | YES
* AD-64981.2 (sense TACAGUCTATGT; antisense ACATAGACTGTA; siRNA; sense: sugars from the 5' end d5 f1 d6, backbone not given here; antisense: DNA, backbone not given here) | YES

Determine if AD-649419.1 (sense TACAGTCTATGT; antisense ACATAGACTGTA; chemistry not fully specified) shows ΔTm (° C.) strictly lower than -0.4 °C.
NO

Check AD-64366.3 (sense UACAGUCUAUGU; antisense ACAUAGACUGUA; RNA, backbone not given here) too.
NO

Follow-up entry: AD-649421.1 (sense TACAGTCTATGT; antisense ACATAGACTGTA; chemistry not fully specified)
YES

How about this substance: AD-72587.2 (sense UACAGUCUAUGU; antisense ACAUAGACUGUA; siRNA; one TNA cytidine in sense strand, plain letters not given here, further chemistry not given here)
YES

Try this substance next: AD-64367.3 (sense TACAGTCTATGT; antisense ACATAGACTGTA; DNA, backbone not given here)
NO

And AD-649426.1 (sense TACAGTCTATGT; antisense ACATAGACTGTA; sense: sugars from the 5' end d6 f1 d5, backbone not given here; antisense: sugars from the 5' end d5 f1 d6, backbone not given here) ?
NO

----------
assay protocol: UV thermal melting temperatures of mUNA 12-mer duplexes
Type: physicochemical
experimental conditions: mUNA 12-mer duplexes, 2.0 μM each strand, 1x PBS, pH 7.4
[UNA] = unlocked nucleic acid; r = 2'-OH (RNA)
API: label(entry) gives TRUE if the entry's Tm (° C.)a is strictly smaller than 40 °C; on equality or larger values it gives FALSE.

Answered examples (6):
* AD-64367.2 (sense TACAGTCTATGT; antisense ACATAGACTGTA; DNA, backbone not given here) | FALSE
* AD-511246.1 (sense UACAGUCUAUGU; antisense ACATAGACTGTA; sense: chemistry not given here; antisense: DNA, backbone not given here; sense strand has one mUNA-type uridine (Uun)) | TRUE
* AD-64366.2 (sense UACAGUCUAUGU; antisense ACAUAGACUGUA; RNA, backbone not given here) | FALSE
* AD-511256.1 (sense TACAGUCTATGT; antisense ACAUAGACUGUA; sense: chemistry not given here; antisense: RNA, backbone not given here; sense strand has one mUNA-type uridine (Uun)) | TRUE
* AD-511247.1 (sense TACAGTCTATGT; antisense ACAUAGACUGUA; sense: DNA, backbone not given here; antisense: RNA, backbone not given here) | FALSE
* AD-511236.1 (sense TACAGUCTATGT; antisense ACATAGACTGTA; sense: chemistry not given here; antisense: DNA, backbone not given here; sense strand has one mUNA-type uridine (Uun)) | TRUE

Decide: Tm (° C.)a of AD-511227.1 (sense UACAGUCUAUGU; antisense ACAUAGACUGUA; sense: sugars from the 5' end r5 [UNA]1 r6, backbone not given here; antisense: RNA, backbone not given here) strictly below 40 °C?
TRUE
